The reader will find reported EC50 values listed item by item below.
Molecular target: EPHA3 (Homo sapiens, UniProt P29320)
Sequence (P29320 21-983): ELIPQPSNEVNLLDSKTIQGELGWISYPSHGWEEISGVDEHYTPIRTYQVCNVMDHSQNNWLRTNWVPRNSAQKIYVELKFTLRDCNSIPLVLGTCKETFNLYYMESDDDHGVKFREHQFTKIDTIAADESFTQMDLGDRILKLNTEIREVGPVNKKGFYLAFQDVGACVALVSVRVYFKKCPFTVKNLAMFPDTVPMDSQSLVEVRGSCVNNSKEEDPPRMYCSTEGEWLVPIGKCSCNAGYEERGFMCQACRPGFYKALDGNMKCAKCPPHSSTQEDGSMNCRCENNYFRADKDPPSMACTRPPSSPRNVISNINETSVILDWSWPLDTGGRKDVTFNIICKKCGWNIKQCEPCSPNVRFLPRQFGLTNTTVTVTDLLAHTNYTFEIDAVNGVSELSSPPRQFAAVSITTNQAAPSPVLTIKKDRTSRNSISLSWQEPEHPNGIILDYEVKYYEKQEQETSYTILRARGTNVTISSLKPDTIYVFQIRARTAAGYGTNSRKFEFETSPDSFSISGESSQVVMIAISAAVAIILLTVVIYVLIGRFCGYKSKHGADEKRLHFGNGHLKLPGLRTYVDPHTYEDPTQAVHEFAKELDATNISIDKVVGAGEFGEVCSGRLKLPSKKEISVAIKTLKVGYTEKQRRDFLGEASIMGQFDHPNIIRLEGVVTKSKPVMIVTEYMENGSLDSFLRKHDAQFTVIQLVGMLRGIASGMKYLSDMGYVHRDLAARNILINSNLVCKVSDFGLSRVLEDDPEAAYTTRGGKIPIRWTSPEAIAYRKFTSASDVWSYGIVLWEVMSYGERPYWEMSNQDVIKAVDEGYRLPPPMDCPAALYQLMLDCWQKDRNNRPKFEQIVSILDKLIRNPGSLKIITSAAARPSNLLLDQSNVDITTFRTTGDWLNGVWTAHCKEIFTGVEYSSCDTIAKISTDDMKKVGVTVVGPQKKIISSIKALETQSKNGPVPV
Experiment: SelectScreen kinase specificity survey
Settings: estimated, abridged dose response curve, read-out: Kinase inhibitory activity EC50

CCN(CC)CCNc1ccc2ncn3c4ccc(O)cc4c(=O)c1c23 [Symadex, reference compound] | > 5 µM

Let us examine a further case.
Task: What measured EC50 is associated with CN(C)CCCNc1ccc2ncn3c4ccc5[nH]ncc5c4c(=O)c1c23 [Compound (IV)] on EPHA3 (Homo sapiens, UniProt P29320)?
Result: > 5 µM

---

Biological target: TEK (Tie2) (Homo sapiens, UniProt Q02763)
Sequence (Q02763 23-1124): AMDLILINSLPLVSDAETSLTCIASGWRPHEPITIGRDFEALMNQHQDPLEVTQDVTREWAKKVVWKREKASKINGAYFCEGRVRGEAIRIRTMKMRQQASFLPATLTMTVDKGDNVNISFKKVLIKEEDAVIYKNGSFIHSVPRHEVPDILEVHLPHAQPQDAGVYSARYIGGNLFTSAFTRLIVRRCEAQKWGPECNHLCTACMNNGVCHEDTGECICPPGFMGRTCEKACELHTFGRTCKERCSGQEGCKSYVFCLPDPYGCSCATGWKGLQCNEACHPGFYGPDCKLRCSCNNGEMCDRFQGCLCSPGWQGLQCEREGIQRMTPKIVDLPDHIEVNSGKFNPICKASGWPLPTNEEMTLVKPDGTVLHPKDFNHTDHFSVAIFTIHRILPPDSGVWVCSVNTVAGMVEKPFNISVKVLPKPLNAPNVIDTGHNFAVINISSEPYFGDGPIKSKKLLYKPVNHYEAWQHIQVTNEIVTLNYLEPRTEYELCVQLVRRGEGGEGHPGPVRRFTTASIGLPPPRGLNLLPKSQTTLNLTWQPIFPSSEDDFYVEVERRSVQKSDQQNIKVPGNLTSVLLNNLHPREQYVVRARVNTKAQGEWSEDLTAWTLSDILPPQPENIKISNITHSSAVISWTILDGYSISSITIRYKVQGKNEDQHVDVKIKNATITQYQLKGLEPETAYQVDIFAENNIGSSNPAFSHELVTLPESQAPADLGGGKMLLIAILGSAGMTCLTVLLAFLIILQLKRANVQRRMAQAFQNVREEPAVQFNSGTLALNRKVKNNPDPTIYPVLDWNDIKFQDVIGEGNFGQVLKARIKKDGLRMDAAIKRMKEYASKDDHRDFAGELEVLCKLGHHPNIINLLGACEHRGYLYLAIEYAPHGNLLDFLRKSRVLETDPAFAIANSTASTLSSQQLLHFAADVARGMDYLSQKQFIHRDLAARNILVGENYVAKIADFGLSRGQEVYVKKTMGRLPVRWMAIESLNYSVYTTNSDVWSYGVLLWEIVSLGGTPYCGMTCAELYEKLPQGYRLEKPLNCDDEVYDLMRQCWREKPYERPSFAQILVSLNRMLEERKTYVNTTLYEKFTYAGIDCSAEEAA
Assay: SelectScreen kinase specificity survey
Settings: estimated, abridged dose response curve, read-out: Kinase inhibitory activity EC50
pEC50: −log10 of the molar value.
The reader will find reported pEC50 values listed item by item below.

CN(C)CCCNc1ccc2ncn3c4ccc5[nH]ncc5c4c(=O)c1c23 | < 5.30

Let us examine a further case.
Task: Which pEC50 value belongs to CCN(CC)CCNc1ccc2ncn3c4ccc(O)cc4c(=O)c1c23 [Symadex, reference compound] ?
Result: < 5.30

---

Target: ACVR1B (ALK4) (Homo sapiens, UniProt P36896)
Sequence (P36896 24-505): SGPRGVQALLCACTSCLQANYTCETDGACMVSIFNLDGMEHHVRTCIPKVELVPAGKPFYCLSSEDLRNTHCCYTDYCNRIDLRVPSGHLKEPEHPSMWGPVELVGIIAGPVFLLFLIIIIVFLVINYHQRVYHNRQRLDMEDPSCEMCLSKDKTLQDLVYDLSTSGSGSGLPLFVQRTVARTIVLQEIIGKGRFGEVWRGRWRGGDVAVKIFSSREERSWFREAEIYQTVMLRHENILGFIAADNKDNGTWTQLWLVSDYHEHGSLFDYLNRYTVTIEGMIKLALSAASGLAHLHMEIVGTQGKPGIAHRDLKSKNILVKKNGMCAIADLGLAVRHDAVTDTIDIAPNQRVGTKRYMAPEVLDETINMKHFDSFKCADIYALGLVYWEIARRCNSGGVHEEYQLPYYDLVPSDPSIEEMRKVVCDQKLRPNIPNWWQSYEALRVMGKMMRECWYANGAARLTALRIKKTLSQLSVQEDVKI
Assay: SelectScreen kinase specificity survey
Conditions: estimated, abridged dose response curve, read-out: Kinase inhibitory activity EC50
pEC50: −log10 of the molar value.
The reader will find reported pEC50 values listed item by item below.

CN(C)CCCNc1ccc2ncn3c4ccc5[nH]ncc5c4c(=O)c1c23 | < 5.30

Task: Which pEC50 value belongs to CCN(CC)CCNc1ccc2ncn3c4ccc(O)cc4c(=O)c1c23 [Symadex, reference compound] ?
Result: < 5.30

---

The reader will find reported EC50 values listed item by item below.
Biological target: BaF3-D835N (Homo sapiens, UniProt P36888, D835N, cells depend on it)
Sequence (P36888 whole entry D835N): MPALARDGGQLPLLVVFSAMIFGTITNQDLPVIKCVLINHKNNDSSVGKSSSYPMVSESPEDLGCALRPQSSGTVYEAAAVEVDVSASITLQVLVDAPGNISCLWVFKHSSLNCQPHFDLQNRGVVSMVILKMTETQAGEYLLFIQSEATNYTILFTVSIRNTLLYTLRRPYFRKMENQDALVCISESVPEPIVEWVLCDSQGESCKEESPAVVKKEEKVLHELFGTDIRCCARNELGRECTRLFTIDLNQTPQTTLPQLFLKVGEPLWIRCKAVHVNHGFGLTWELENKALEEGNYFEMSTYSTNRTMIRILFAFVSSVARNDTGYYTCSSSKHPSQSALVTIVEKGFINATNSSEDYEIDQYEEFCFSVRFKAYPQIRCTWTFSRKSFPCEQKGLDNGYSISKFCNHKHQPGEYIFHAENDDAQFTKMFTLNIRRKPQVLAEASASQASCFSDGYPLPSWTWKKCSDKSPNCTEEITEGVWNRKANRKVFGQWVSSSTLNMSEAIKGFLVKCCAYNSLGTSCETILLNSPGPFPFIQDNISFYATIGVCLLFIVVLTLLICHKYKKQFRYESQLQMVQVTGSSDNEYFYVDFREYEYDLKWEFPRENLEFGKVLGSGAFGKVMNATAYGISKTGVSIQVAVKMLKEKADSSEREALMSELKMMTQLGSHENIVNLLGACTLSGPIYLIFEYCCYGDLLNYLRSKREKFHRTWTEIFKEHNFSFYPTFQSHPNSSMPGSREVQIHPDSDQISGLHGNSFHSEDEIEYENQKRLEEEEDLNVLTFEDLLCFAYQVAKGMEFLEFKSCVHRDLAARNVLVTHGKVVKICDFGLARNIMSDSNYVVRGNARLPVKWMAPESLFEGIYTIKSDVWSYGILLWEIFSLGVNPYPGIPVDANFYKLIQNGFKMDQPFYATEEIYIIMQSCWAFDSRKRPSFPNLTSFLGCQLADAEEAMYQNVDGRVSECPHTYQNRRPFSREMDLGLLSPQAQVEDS
Experiment: MTS cellular proliferation assay
Assay type: cell-based
Conditions: 72 hour incubation, read-out: Growth inhibitory activity (in vivo EC50 nM)
Write the number in nM without appending the unit.

Task: Which EC50 value belongs to CN(C)CCCNc1ccc2ncn3c4ccc5[nH]ncc5c4c(=O)c1c23 ?
Result: 12

Task: Cool, now CN(C)CCCCCNc1ccc2ncn3c4ccc5[nH]ncc5c4c(=O)c1c23
Result: 316

Task: Cool, now CCN(CC)CCNc1ccc2ncn3c4ccc(O)cc4c(=O)c1c23 [Symadex, reference compound]
Result: 14.3

---

The reader will find reported EC50 values listed item by item below.
Target: UniProt:P45984
Sequence (P45984 whole entry): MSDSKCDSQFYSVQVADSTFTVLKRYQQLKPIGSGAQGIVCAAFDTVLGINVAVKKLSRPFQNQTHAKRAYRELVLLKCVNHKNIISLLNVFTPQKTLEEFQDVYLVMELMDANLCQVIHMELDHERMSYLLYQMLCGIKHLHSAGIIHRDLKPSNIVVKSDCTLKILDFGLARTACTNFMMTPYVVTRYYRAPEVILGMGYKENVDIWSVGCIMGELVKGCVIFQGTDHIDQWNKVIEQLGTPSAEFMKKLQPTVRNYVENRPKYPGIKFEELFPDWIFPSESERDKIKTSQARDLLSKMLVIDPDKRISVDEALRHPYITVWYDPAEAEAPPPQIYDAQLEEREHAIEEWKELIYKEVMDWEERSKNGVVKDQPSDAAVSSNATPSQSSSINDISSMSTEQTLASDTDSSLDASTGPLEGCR
Experiment: SelectScreen kinase specificity survey
Conditions: estimated, abridged dose response curve, read-out: Kinase inhibitory activity EC50

CN(C)CCCNc1ccc2ncn3c4ccc5[nH]ncc5c4c(=O)c1c23 | > 5 µM

Let us examine a further case.
Task: What measured EC50 is associated with CCN(CC)CCNc1ccc2ncn3c4ccc(O)cc4c(=O)c1c23 [Symadex, reference compound] on UniProt:P45984?
Result: > 5 µM

---

Target: AURKA (Aurora A) (Homo sapiens, UniProt O14965)
Sequence (O14965 1-403): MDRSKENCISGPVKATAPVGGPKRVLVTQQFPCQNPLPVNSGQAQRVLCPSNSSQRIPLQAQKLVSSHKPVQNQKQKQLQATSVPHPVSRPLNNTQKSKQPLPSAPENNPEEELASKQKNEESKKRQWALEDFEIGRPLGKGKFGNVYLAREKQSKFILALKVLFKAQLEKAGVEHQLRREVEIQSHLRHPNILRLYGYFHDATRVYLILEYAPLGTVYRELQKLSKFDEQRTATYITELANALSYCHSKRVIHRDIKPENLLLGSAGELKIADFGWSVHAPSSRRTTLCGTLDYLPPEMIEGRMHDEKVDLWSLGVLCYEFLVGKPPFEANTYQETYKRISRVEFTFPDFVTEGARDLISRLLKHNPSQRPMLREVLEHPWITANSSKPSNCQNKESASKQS
Assay: SelectScreen kinase specificity survey
Details: estimated, abridged dose response curve, read-out: Kinase inhibitory activity EC50
pEC50: −log10 of the molar value.
measured property: pEC50

CN(C)CCCNc1ccc2ncn3c4ccc5[nH]ncc5c4c(=O)c1c23 | < 5.30

Task: Which pEC50 value belongs to CCN(CC)CCNc1ccc2ncn3c4ccc(O)cc4c(=O)c1c23 [Symadex, reference compound] ?
Result: < 5.30
